- TEST: LY2510924 pharmacokinetics in plasma, noncompartmental analysis
- SETTINGS: human, plasma, sc, Cmax, Day 1; 20 mg/day SC, n = 3; geometric mean (CV%); with durvalumab
Where a SMILES comes first, the peptide text is derived from it. Bridges are numbered along the chain shown (N, C = ends). [ ]: non-standard residue; d: D form. 2Nal = N[C@@H](Cc1ccc2ccccc2c1)C(=O)O; Lys(iPr) = CC(C)NCCCC[C@H](N)C(=O)O
ENDPOINT: Cmax (ng/mL)
The reply should contain only the number, in ng/mL.

Query CC(C)NCCCC[C@H](NC(=O)[C@H]1CCC(=O)N[C@@H](Cc2ccccc2)C(=O)N[C@@H](Cc2ccc(O)cc2)C(=O)N[C@@H](CCCCNC(C)C)C(=O)N[C@H](CCCNC(=N)N)C(=O)N[C@@H](Cc2ccc3ccccc3c2)C(=O)NCC(=O)N1)C(N)=O [LY2510924] (FY[Lys(iPr)][dR][2Nal]G[dE][Lys(iPr)]-NH2; lactam N-7) yields Cmax of 747

Cited source: paper PMC7097682
